subject-of-test: Vasopressin V2 receptor (Homo sapiens)
Sequence (P30518 whole entry): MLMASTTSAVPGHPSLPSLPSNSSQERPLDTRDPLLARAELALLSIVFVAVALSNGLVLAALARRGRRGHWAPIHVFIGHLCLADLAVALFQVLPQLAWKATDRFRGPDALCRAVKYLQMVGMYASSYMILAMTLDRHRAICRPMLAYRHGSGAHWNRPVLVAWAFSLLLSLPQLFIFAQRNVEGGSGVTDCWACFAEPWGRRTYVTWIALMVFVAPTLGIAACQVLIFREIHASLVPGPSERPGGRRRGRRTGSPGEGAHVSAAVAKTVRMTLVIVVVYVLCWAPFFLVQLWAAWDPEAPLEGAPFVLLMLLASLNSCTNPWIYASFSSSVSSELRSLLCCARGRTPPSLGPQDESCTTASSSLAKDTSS
method: Binding affinity to V2 receptor (unknown origin)
endpoint: pKi
pKi field: float, defined as -log10 of concentration (mol/L).

Query string: # get_value(readout='pKi', item= Cc1ccn(-c2ccc(C(=O)N3Cc4cccn4Cc4ccccc43)c(Cl)c2)n1 )
Result string: 7.40

----------
subject-of-test: Oxytocin receptor (Homo sapiens) (UniProt P30559)
Sequence (P30559 whole entry): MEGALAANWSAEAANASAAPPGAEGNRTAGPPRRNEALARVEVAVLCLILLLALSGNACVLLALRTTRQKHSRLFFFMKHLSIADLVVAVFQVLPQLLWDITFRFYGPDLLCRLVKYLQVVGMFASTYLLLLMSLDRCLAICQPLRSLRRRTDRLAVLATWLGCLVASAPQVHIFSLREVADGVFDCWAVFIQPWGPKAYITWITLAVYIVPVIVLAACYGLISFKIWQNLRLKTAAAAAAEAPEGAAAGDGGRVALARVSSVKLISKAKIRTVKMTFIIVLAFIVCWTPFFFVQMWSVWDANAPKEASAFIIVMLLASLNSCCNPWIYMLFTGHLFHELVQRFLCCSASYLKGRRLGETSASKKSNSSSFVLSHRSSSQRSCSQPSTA
method: Antagonist activity at human OTR receptor expressed in CHO cells assessed as inhibition of OT-induced myo-inositol 1-phosphate accumulation by IP-One assay
Format: functional, cell-based
endpoint: Kinact
State the result as a value with its unit after it.

Answered examples (4):
| chemical-structure | Kinact |
| --- | --- |
| CCCc1ccc(C(=O)N2CCCCc3ccccc32)cc1 | 172 nM |
| O=C(c1ccc(-c2cccnc2)cc1)N1CCCCc2ccccc21 | 227 nM |
| O=C(c1ccc(-c2ccccc2)cc1)N1CCCCc2ccccc21 | 42 nM |
| Cc1ccn(-c2ccc(C(=O)N3CCCCc4ccccc43)cc2)n1 | 112 nM |

Query string: # get_value(readout='Kinact', item= CCCCc1ccc(C(=O)N2CCCCc3ccccc32)cc1 )
Result string: 113 nM

Query string: # get_value(readout='Kinact', item= CN(C)c1ccc(C(=O)N2CCCCc3ccccc32)cc1 )
Result string: 186 nM

Hello, the source for this data is ChEMBL document CHEMBL4196200, in case you need it.
